The values you see were collected from ChEMBL document CHEMBL3232965.

Experiment: Displacement of [3H]progesterone from sigma-1 opioid receptor in porcine liver microsome membranes
Type: microsomes, Sus scrofa
reported.property: pKi
To interpret pKi, take it as minus log10 of a concentration measured in moles per litre.

The reported pKi of the compound CC(C)=CCN1CC[C@]2(C)c3cc(O)ccc3C[C@H]1[C@H]2C [(+)-PENTAZOCINE] was 5.95

###

Below, each entry is listed with its recorded Ratio Ki.
Species on record: Homo sapiens
Assay: Selectivity ratio of Ki for sigma-1 opioid receptor (unknown origin) to Ki for sigma-2 opioid receptor (unknown origin)
Lab note: write the figure by itself, no unit.

CC[C@H]1C[C@H]2C[C@H]3c4[nH]c5ccc(OC)cc5c4CCN(C2)[C@@H]13 : 43
COc1ccc(C(=O)NCCCCN2CCc3ccc([N+](=O)[O-])cc3C2)c(OC)c1OC : 385

# ---- query molecule ----
The reported Ratio Ki of the molecule CN1CC[C@@]2(c3cccc(O)c3)CC(=O)/C(=C/c3ccc(Cl)c(Cl)c3)[C@@H]1C2 was 0.77
